Subject Of Test: T1, NHERF3_3, Q5T2W1
T1 sequence (Q5T2W1 238-333, limits assumed, looked up): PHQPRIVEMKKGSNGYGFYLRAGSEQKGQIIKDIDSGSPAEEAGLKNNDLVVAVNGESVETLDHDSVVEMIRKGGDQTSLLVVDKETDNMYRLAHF
Assay: holdup assay
Design: key: below the threshold = too weak to quantify, mostly under pKd 3.1 to 4
Condition Info: plain residues with an end cap or a label only (N-terminal biotin on a linker: ahx)
Property: pKd

                         binder                value
0    KEYDDELTFF [USH1C, Q9Y6N9]  below the threshold
1   SAPATLSSRA [PDLIM2, Q96JY6]  below the threshold
2  ADENEQVSAV [RAPGEF6, Q8TEU7]  below the threshold
3     KDECVIATEV [DLL1, O00548]  below the threshold

Parameters: items (list). Returns: pKd for each item.
1. YNSFLSVTTV [PDZRN3, Q9UPQ7]
2. AKPQPVDSWV [ARVCF, O00192]
3. HSATSVHTSV [MTMR1, Q13613]
4. VNENQKEYFF [CNTNAP4, Q9C0A0]
5. PKMKLNETSF [SHKBP1, Q8TBC3]

*A*
1. below the threshold
2. below the threshold
3. below the threshold
4. below the threshold
5. below the threshold

*Q* Query (binder): SKKNELFSNL [NHERF1, O14745] ; field requested: pKd
*A* below the threshold
